Could you please report measured logD for the items listed next?
- EXPERIMENT SUMMARY: physchem
- Assay type: physicochemical
- STATED CONDITIONS: pH 7.4, logD7.4 (Mean ± SD) 177Lu-
Number, no unit, nothing else.

Note to self: logD recorded for O=C(O)CN1CCN(CC(=O)O)CCN(CC(=O)NCCCCCC(=O)N[C@@H](Cc2c[nH]c3ccccc23)C(=O)OCc2cc(C(F)(F)F)cc(C(F)(F)F)c2)CCN(CC(=O)O)CC1 [[^177Lu]Lu-4d, metal not drawn] was 0.866

Note to self: logD recorded for O=C(O)CN1CCN(CC(=O)O)CCN(CC(=O)N[C@@H](Cc2c[nH]c3ccccc23)C(=O)OCc2cc(C(F)(F)F)cc(C(F)(F)F)c2)CCN(CC(=O)O)CC1 [[^177Lu]Lu-1d, metal not drawn] was 0.4

Note to self: logD recorded for O=C(O)CN1CCN(CC(=O)O)CCN(CC(=O)NCCCCCC(=O)NCCCCCC(=O)N[C@@H](Cc2c[nH]c3ccccc23)C(=O)OCc2cc(C(F)(F)F)cc(C(F)(F)F)c2)CCN(CC(=O)O)CC1 [[^177Lu]Lu-5d, metal not drawn] was 0.294

Note to self: logD recorded for C[C@@H](NC(=O)CN1CCN(CC(=O)O)CCN(CC(=O)O)CCN(CC(=O)O)CC1)C(=O)N[C@H](C)C(=O)N[C@@H](Cc1c[nH]c2ccccc12)C(=O)OCc1cc(C(F)(F)F)cc(C(F)(F)F)c1 [[^177Lu]Lu-3d, metal not drawn] was 0.619

Note to self: logD recorded for C[C@@H](NC(=O)CN1CCN(CC(=O)O)CCN(CC(=O)O)CCN(CC(=O)O)CC1)C(=O)N[C@@H](Cc1c[nH]c2ccccc12)C(=O)OCc1cc(C(F)(F)F)cc(C(F)(F)F)c1 [[^177Lu]Lu-2d, metal not drawn] was 0.704
